assay: Clearance in Sprague-Dawley rat at 1 mg/kg, iv and 2 mg/kg, po; type: ADME, organism-based; conditions: in vivo
measure: clearance (mL/min/kg)
Numbers only, in mL/min/kg.

[[record]]
compound = "O=c1[nH]nc(-c2ccc(OCc3ccc4ccccc4n3)cc2[C@@]2(c3ccccc3)C[C@H]3CC[C@H]2C3)o1"
endpointvalue = 7.3

[[record]]
compound = "CC(C)(C)[C@@H](c1ccccc1)c1cc(OCc2ccc3ccccc3n2)ccc1-c1n[nH]c(=O)o1"
endpointvalue = 29

[[record]]
compound = "CC1CC(c2ccccc2)(c2cc(OCc3ccc4ccccc4n3)ccc2-c2n[nH]c(=O)o2)C1 (mixture of isomers)"
endpointvalue = 32


# batch size: 2; output clearance per entry
1. COc1cccc([C@]2(c3cc(OCc4ccc5ccccc5n4)ccc3-c3n[nH]c(=O)o3)C[C@H]3CC[C@H]2C3)c1
2. CC1(C)CC(c2ccccc2)(c2cc(OCc3ccc4ccccc4n3)ccc2-c2n[nH]c(=O)o2)C1

## Output
7.2
71
